- system: T1, human SIRPαV2 extracellular domain + His-tag (CAA71403.1) (human, UniProt P78324 31-373)
- T1 construct: also called hSIRPαV2; HuSIRPαV2
- T1 sequence (P78324 other isoform, or with tags, fused parts or gaps): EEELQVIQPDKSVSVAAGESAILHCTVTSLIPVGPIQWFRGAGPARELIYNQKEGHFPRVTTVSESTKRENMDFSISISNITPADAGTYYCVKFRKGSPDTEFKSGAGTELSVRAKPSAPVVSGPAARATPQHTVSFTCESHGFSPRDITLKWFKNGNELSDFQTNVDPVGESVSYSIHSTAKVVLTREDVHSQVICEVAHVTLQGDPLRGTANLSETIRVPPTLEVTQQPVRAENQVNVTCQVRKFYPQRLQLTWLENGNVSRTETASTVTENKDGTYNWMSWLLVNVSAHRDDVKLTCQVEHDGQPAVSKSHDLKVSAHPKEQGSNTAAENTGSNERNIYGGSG
- experiment-notes: SPR, Ab captured, ECD-His analyte
- Experimental: The binding affinity of anti-SIRPα antibodies to the various SIRPα analytes is determined by surface plasmon resonance (SPR) using a ProteOn XPR36 (Bio-Rad). The running buffer for this experiment and all dilutions (except where stated) are done in 1×HBS-EP+. […] The sensorchip is deactivated with 1M ethanolamine HCl for 420 sec at a flowrate of 10 μl/min. The analyte is injected over the captured antibody for 300 sec at a flowrate of 30 μl/min. The dissociation is done for 600 sec. […]
readout-name: Kd (nM)

- Antibody E4 (antibody, human IgG1, kappa, L234A L235A, V domains shown) VH: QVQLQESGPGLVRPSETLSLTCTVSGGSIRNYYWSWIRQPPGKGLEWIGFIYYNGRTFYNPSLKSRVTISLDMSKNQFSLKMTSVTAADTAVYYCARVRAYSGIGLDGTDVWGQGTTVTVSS VL: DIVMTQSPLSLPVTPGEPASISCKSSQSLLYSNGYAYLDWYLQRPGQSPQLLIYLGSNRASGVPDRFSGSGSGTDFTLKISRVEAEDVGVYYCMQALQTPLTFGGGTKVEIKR: 0.824
- Antibody E3 (antibody, human IgG1, kappa, L234A L235A, V domains shown) VH: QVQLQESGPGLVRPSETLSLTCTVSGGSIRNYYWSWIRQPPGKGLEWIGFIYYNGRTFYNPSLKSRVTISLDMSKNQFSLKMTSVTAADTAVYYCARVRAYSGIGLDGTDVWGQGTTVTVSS VL: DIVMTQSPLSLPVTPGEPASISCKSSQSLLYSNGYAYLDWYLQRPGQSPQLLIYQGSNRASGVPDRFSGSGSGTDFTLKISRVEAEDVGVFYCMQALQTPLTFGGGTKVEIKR: 0.775
